# System: DeltatarO mutant
# protocol description: S. aureus survival, RN4220 and DeltatarO strains – OD600, teichoic acid synthesis inhibitors, primary screen (AID 463173)
# setup conditions: S. aureus RN4220 wild type/DeltatarO growth, OD600, 18 h, screened at 18.75 µg/mL (by protocol)
In all, about 52,000 compounds went through this assay and about 4,300 (8.3%) were called active. No stated cut-off is given here; in the data, active means survival mostly below about 52% (no sharp cut-off); inactive means mostly above about 56%. Many of the other results were omitted from the sample, so actives are more common in it than they were.
Labels: active, inactive

>  <molecule>
CC(=O)Nc1ccc(NC(=O)C(Cc2ccccc2)N2Cc3ccccc3C2=O)cc1 (stereo unspecified)

>  <assayed target>
DeltatarO mutant

>  <class assignment>
inactive

$$$$
>  <molecule>
CCOC(=O)C1CCC(CN(Cc2ccc(OC)cc2)S(=O)(=O)c2ccc(F)c(C(=O)Nc3cc(Cl)ccc3OC)c2)CC1 (stereo unspecified)

>  <assayed target>
DeltatarO mutant

>  <class assignment>
inactive

$$$$
>  <molecule>
CCCCN(CC)CCNC(=O)Cn1cnc2sc(C)c(S(=O)(=O)N3CCC(C)CC3)c2c1=O

>  <assayed target>
DeltatarO mutant

>  <class assignment>
inactive

$$$$
>  <molecule>
Cc1cc(C)c(NC(=O)CSc2nc(=O)n(Cc3cccnc3)c3c2CCC3)c(C)c1

>  <assayed target>
DeltatarO mutant

>  <class assignment>
inactive

$$$$
>  <molecule>
Cc1ccccc1C(=O)OCc1cc(=O)n2c(C)csc2n1

>  <assayed target>
DeltatarO mutant

>  <class assignment>
inactive

$$$$
>  <molecule>
Cc1c(C(=O)NCc2cccc(F)c2)oc2c1-c1[nH]ncc1CC2

>  <assayed target>
DeltatarO mutant

>  <class assignment>
inactive

$$$$
>  <molecule>
CN(C)S(=O)(=O)N(CC(=O)NCCSc1ccc(Cl)cc1)c1ccccc1

>  <assayed target>
DeltatarO mutant

>  <class assignment>
inactive

$$$$
>  <molecule>
O=C(Nc1ccc(C(F)(F)F)cc1)C(Cc1ccccc1)n1cccc1 (stereo unspecified)

>  <assayed target>
DeltatarO mutant

>  <class assignment>
active

$$$$
>  <molecule>
CCOc1ccc(NC(=O)Cn2c(=O)n(-c3ccccc3)c(=O)c3c4c(sc32)CCCC4)cc1

>  <assayed target>
DeltatarO mutant

>  <class assignment>
active

$$$$
>  <molecule>
Cc1cccc(C(=O)NC2=NC(c3ccc(Cl)cc3)CC(=O)N2)c1 (stereo unspecified)

>  <assayed target>
DeltatarO mutant

>  <class assignment>
inactive

$$$$
>  <molecule>
O=C(Nc1ccccc1F)C(Cc1ccccc1)n1cccc1 (stereo unspecified)

>  <assayed target>
DeltatarO mutant

>  <class assignment>
inactive

$$$$
>  <molecule>
Cc1ccc(Cl)cc1NC(=O)CSC1=Nc2ccccc2C2=NC(Cc3ccccc3)C(=O)N12 (stereo unspecified)

>  <assayed target>
DeltatarO mutant

>  <class assignment>
inactive

$$$$
>  <molecule>
COc1cccc(CNC(=O)c2cc(S(=O)(=O)N3CCCCC3)c[nH]2)c1

>  <assayed target>
DeltatarO mutant

>  <class assignment>
inactive

$$$$
>  <molecule>
C#CCn1c(=NC(=O)c2ccc3c(c2)OCCO3)sc2cc(OC)c(OC)cc21

>  <assayed target>
DeltatarO mutant

>  <class assignment>
inactive

$$$$
>  <molecule>
CCCN1C2CCCC1CC(NC(=O)NC1CCCCC1)C2 (stereo unspecified)

>  <assayed target>
DeltatarO mutant

>  <class assignment>
inactive

$$$$
>  <molecule>
CC1CCCN(CNC(=O)c2ccccc2)C1 (stereo unspecified)

>  <assayed target>
DeltatarO mutant

>  <class assignment>
inactive

$$$$
>  <molecule>
COc1ccccc1-c1nc(CNC(=O)Nc2ccccc2)c(C)o1

>  <assayed target>
DeltatarO mutant

>  <class assignment>
inactive

$$$$
>  <molecule>
COc1ccc(NC(=O)Cn2c(=O)n(-c3ccccc3)c(=O)c3c4c(sc32)CCCC4)cc1

>  <assayed target>
DeltatarO mutant

>  <class assignment>
inactive

$$$$
>  <molecule>
Cc1cccc(NC(=O)CCNS(=O)(=O)c2ccc3c(c2)CCCC(=O)N3)c1C

>  <assayed target>
DeltatarO mutant

>  <class assignment>
inactive

$$$$
>  <molecule>
CCOc1ccc(-n2c(=O)c3c(C)c(C)sc3n(CC(=O)N(CC)Cc3ccccc3)c2=O)cc1

>  <assayed target>
DeltatarO mutant

>  <class assignment>
active

$$$$
>  <molecule>
CCCN1c2cccc3cccc(c23)S1(=O)=O

>  <assayed target>
DeltatarO mutant

>  <class assignment>
inactive

$$$$

---

# Test system: DeltatarO mutant
# protocol description: S. aureus survival, RN4220 and DeltatarO strains – OD600, teichoic acid synthesis inhibitors, primary screen (AID 463173)
# setup conditions: S. aureus RN4220 wild type/DeltatarO growth, OD600, 18 h, hits give low values, screened at 18.75 µg/mL (by protocol)
In all, about 52,000 compounds went through this assay and about 4,300 (8.3%) were called active. The sample as a whole holds a higher share of actives than the screen did.
Classification by survival | ranges: lo = under 60%, mid = from 60% up to 90%, hi = 90% and over

>  <compound>
CCCN(CCC)C(=O)c1cc2c(=O)n3cccc(C)c3nc2n1C

>  <class assignment>
mid

$$$$
>  <compound>
CCCN(CCC)C(=O)c1cc2c(=O)n3cccc(C)c3nc2s1

>  <class assignment>
lo

$$$$
>  <compound>
COC(=O)c1ccc(-c2ccc(/C=N/NC(=O)CC3(C)OCCCO3)o2)cc1

>  <class assignment>
hi

$$$$
>  <compound>
CCCCN(CC)C(=O)c1cc2c(=O)n3ccccc3nc2n1C

>  <class assignment>
lo

$$$$
>  <compound>
CCCCOC(=O)c1ccc(Nc2ncnc3[nH]ncc23)cc1

>  <class assignment>
lo

$$$$
>  <compound>
CC(=O)N1CCOc2cc(S(=O)(=O)Nc3cc(C(F)(F)F)ccc3Cl)c(C)cc21

>  <class assignment>
hi

$$$$
>  <compound>
Cc1cc(C)c2c(-n3cccc3)c(C(=O)NCC(C)c3ccccc3)sc2n1 (stereo unspecified)

>  <class assignment>
mid

$$$$
>  <compound>
CCN(CC)N=Nc1ccc(S(=O)(=O)Nc2nc(C)cc(C)n2)cc1

>  <class assignment>
hi

$$$$
>  <compound>
Cc1nn(Cc2noc(C(=O)NCc3cccc(F)c3)n2)c(C)c1Br

>  <class assignment>
mid

$$$$
>  <compound>
COc1ccc(NC(=O)CCCN2C(=O)COc3ccc(C)cc32)cc1OC

>  <class assignment>
hi

$$$$

---

# Test system: DeltatarO mutant
# protocol description: S. aureus survival, RN4220 and DeltatarO strains – OD600, teichoic acid synthesis inhibitors, primary screen (AID 463173)
# setup conditions: S. aureus RN4220 wild type/DeltatarO growth, OD600, 18 h, hits give low values, screened at 18.75 µg/mL (by protocol)
The campaign covered roughly 52,000 compounds. About 4,300 (8.3%) were called active. This is one part of a sample in which actives are shown more often than they occur.
Sorting guide: entries reporting survival beneath 60% go in the rule met pile, the rest go in the rule not met pile.

>  <molecule>
O=C1CC(c2nc3ccccc3n2CCC2CCCCC2)CN1c1ccccc1Cl (stereo unspecified)

>  <class assignment>
rule met

$$$$
>  <molecule>
COc1ccccc1OCCCn1c(C2CC(=O)N(c3ccccc3Cl)C2)nc2ccccc21 (stereo unspecified)

>  <class assignment>
rule not met

$$$$
>  <molecule>
Cc1ccccc1N1CC(c2nc3ccccc3n2Cc2ccc(Br)cc2)CC1=O (stereo unspecified)

>  <class assignment>
rule met

$$$$
>  <molecule>
CCOc1ccc(NC(=O)Cn2c(=O)c(CNc3ccc(CC)cc3)cc3cc4c(cc32)OCO4)cc1

>  <class assignment>
rule met

$$$$
>  <molecule>
CCn1c2ccccc2c2cc(CN3CCN(Cc4cc(OC)c(O)c(OC)c4)CC3)ccc21

>  <class assignment>
rule met

$$$$
>  <molecule>
Cc1ccccc1N1CC(c2nc3ccccc3n2CCC2CCCCC2)CC1=O (stereo unspecified)

>  <class assignment>
rule met

$$$$
>  <molecule>
CCc1ccc(NCc2cc3cc4c(cc3n(CC(=O)Nc3ccc(Cl)cc3)c2=O)OCO4)cc1

>  <class assignment>
rule not met

$$$$
>  <molecule>
Cc1nn(CC(=O)Nc2ccccc2F)c(=O)c2c(C)n(-c3ccc(Cl)cc3)nc12

>  <class assignment>
rule not met

$$$$
>  <molecule>
CCCS(=O)(=O)N1CCN(Cc2ccc(OC)c(OCC)c2)CC1

>  <class assignment>
rule not met

$$$$
>  <molecule>
Cc1cccc(N(C)c2ccc3cc(S(=O)(=O)N4CCCC4)ccc3n2)c1

>  <class assignment>
rule not met

$$$$
>  <molecule>
Cc1ccc(CN2C(=O)SC(Nc3ccccc3)C2=O)cc1 (stereo unspecified)

>  <class assignment>
rule met

$$$$
>  <molecule>
CCOc1ccc(NC2SC(=O)N(Cc3ccccc3)C2=O)cc1 (stereo unspecified)

>  <class assignment>
rule met

$$$$
>  <molecule>
Cc1c(Cl)cccc1N1CC(c2nc3ccccc3n2Cc2ccccc2F)CC1=O (stereo unspecified)

>  <class assignment>
rule met

$$$$
>  <molecule>
CCc1ccc(NCc2cc3cc4c(cc3n(CC(=O)Nc3ccc(C)cc3)c2=O)OCO4)cc1

>  <class assignment>
rule not met

$$$$
>  <molecule>
COc1cccc(C(=O)NC2=NC(c3ccccc3F)CC(=O)N2)c1 (stereo unspecified)

>  <class assignment>
rule not met

$$$$
>  <molecule>
COc1ccc(CCn2nnnc2CN2CCN(Cc3ccccc3)CC2)cc1OC

>  <class assignment>
rule not met

$$$$
>  <molecule>
COc1ccc(NC2SC(=O)N(c3ccccc3)C2=O)cc1 (stereo unspecified)

>  <class assignment>
rule not met

$$$$
>  <molecule>
COc1ccc(NCc2cc3cc4c(cc3n(CC(=O)Nc3ccc(C)cc3)c2=O)OCO4)cc1

>  <class assignment>
rule not met

$$$$
>  <molecule>
COC(=O)c1cccc(CN2C(=O)SC(Nc3ccc(Br)cc3)C2=O)c1 (stereo unspecified)

>  <class assignment>
rule met

$$$$
>  <molecule>
CC(=O)c1cccc(NC(=O)Cn2c(=O)c(CNc3ccc(C)cc3)cc3cc4c(cc32)OCCO4)c1

>  <class assignment>
rule not met

$$$$
